- Organism: Rattus norvegicus
- ASSAY_TEXT: DrugMatrix - Regimen: Daily Repeat
- Format: toxicity, organism-based, Sprague-Dawley
- Parameters: regimen Daily Repeat, gender Male, age 6-8 weeks
- CONDITION_NOTES: in vivo, po, 0 mg/kg, 120 h, tissue Plasma, route oral GAVAGE, dose level Control, time 5 day, vehicle .5 % CMC
Strictly below 70 u/L in ASPARTATE AMINOTRANSFERASE: true. Otherwise: false.

>  <COMPOUND>
NC(=O)N1c2ccccc2CC(=O)c2ccccc21 [OXCARBAZEPINE]

>  <LABEL_CLASS>
false

$$$$
>  <COMPOUND>
CN(C)CCN(Cc1cccs1)c1ccccn1

>  <LABEL_CLASS>
false

$$$$
>  <COMPOUND>
C[C@@H]1O[C@@H](O[C@H]2C[C@@H](O)[C@]3(CO)[C@H]4[C@H](O)C[C@]5(C)[C@@H](C6=CC(=O)OC6)CC[C@]5(O)[C@@H]4CC[C@]3(O)C2)[C@H](O)[C@H](O)[C@H]1O

>  <LABEL_CLASS>
false

$$$$
>  <COMPOUND>
CN1C(=O)CN=C(c2ccccc2)c2cc([N+](=O)[O-])ccc21

>  <LABEL_CLASS>
true

$$$$

----------
The entries below are paired with their reported ABSOLUTE SEGMENTED NEUTROPHIL.
- Species on record: Rattus norvegicus
- ASSAY_TEXT: DrugMatrix - Regimen: Daily Repeat
- Type: toxicity, organism-based, Sprague-Dawley
- Parameters: regimen Daily Repeat, gender Male, age 6-8 weeks
- CONDITION_NOTES: in vivo, iv, 0 mg/kg, 72 h, tissue Blood, dose level Control, time 3 day, vehicle 100 % SALINE
PROPERTY_LABEL: ABSOLUTE SEGMENTED NEUTROPHIL (CELLS/uL)

>  <COMPOUND>
O=c1[nH]c(=O)n([C@H]2C[C@H](O)[C@@H](CO)O2)cc1F

>  <OBSERVED_VALUE>
1170.83

$$$$
>  <COMPOUND>
COc1cccc2c1C(=O)c1c(O)c3c(c(O)c1C2=O)C[C@@](O)(C(C)=O)C[C@@H]3O[C@H]1C[C@H](N)[C@H](O)[C@H](C)O1

>  <OBSERVED_VALUE>
702.17

$$$$
>  <COMPOUND>
C[N+](C)(C)CCOC(=O)CCC(=O)OCC[N+](C)(C)C.[Cl-].[Cl-] [SUCCINYLCHOLINE CHLORIDE]

>  <OBSERVED_VALUE>
1883

$$$$
>  <COMPOUND>
N=C(N)c1ccc(OCCCCCOc2ccc(C(=N)N)cc2)cc1

>  <OBSERVED_VALUE>
1883

$$$$
>  <COMPOUND>
O=C(O)P(=O)(O)O

>  <OBSERVED_VALUE>
1220.5

$$$$

----------
- Species on record: Rattus norvegicus
- Assay type: toxicity, organism-based, Sprague-Dawley
- CONDITION_NOTES: in vivo, po, 10 mg/kg, 24 h, tissue Blood, route oral GAVAGE, dose level Low, time 1 day, vehicle .5 % CMC
- Description: DrugMatrix - Regimen: Single

>  <SAMPLE_SMILES>
CN(C)CCN(Cc1cccs1)c1ccccn1

>  <UNITS_OF_MEASURE>
cells/µL

>  <ABSOLUTE BASOPHIL>
50

$$$$

----------
- Species: Rattus norvegicus
- ASSAY_TEXT: DrugMatrix - Regimen: Daily Repeat
- Type: toxicity, organism-based, Sprague-Dawley
- Set-up: regimen Daily Repeat, gender Male, age 6-8 weeks
- CONDITION_NOTES: in vivo, po, 2 mg/kg, 72 h, tissue Blood, route oral GAVAGE, dose level High, time 3 day, vehicle 100 % SALINE
PROPERTY_LABEL: ABSOLUTE MONOCYTE (cells/µL)

>  <SAMPLE_SMILES>
COc1cccc2c1C(=O)c1c(O)c3c(c(O)c1C2=O)C[C@@](O)(C(C)=O)C[C@@H]3O[C@H]1C[C@H](N)[C@H](O)[C@H](C)O1

>  <PROPERTY_LABEL>
ABSOLUTE MONOCYTE

>  <UNITS_OF_MEASURE>
cells/µL

>  <OBSERVED_VALUE>
140

$$$$

----------
- Species: Rattus norvegicus
- ASSAY_TEXT: DrugMatrix - Regimen: Daily Repeat
- Assay type: toxicity, organism-based, Sprague-Dawley
- Design: regimen Daily Repeat, gender Male, age 6-8 weeks
- CONDITION_NOTES: in vivo, po, 0 mg/kg, 120 h, tissue Plasma, route oral GAVAGE, dose level Control, time 5 day, vehicle .5 % CMC
Entries whose LACTATE DEHYDROGENASE is below 300 u/L take Criterion met; entries at or above 300 u/L take Criterion not met.

>  <COMPOUND>
NC(=O)N1c2ccccc2CC(=O)c2ccccc21 [OXCARBAZEPINE]

>  <LABEL_CLASS>
Criterion met

$$$$
>  <COMPOUND>
CCOc1nc2cccc(C(=O)O)c2n1Cc1ccc(-c2ccccc2-c2nnn[nH]2)cc1

>  <LABEL_CLASS>
Criterion not met

$$$$
>  <COMPOUND>
C[C@H]1[C@H](NC(=O)/C(=N\OC(C)(C)C(=O)O)c2csc(N)n2)C(=O)N1S(=O)(=O)O

>  <LABEL_CLASS>
Criterion met

$$$$
>  <COMPOUND>
CCC1=C(C)CN(C(=O)NCCc2ccc(S(=O)(=O)NC(=O)N[C@H]3CC[C@H](C)CC3)cc2)C1=O [GLIMEPIRIDE]

>  <LABEL_CLASS>
Criterion not met

$$$$
>  <COMPOUND>
CN(C)C(=O)C(CCN1CCC(O)(c2ccc(Cl)cc2)CC1)(c1ccccc1)c1ccccc1 [LOPERAMIDE]

>  <LABEL_CLASS>
Criterion not met

$$$$
>  <COMPOUND>
C[C@@H]1O[C@@H](O[C@H]2C[C@@H](O)[C@]3(CO)[C@H]4[C@H](O)C[C@]5(C)[C@@H](C6=CC(=O)OC6)CC[C@]5(O)[C@@H]4CC[C@]3(O)C2)[C@H](O)[C@H](O)[C@H]1O

>  <LABEL_CLASS>
Criterion met

$$$$
>  <COMPOUND>
COc1ccccc1[N+](=O)[O-]

>  <LABEL_CLASS>
Criterion met

$$$$
>  <COMPOUND>
CN(C)CCN(Cc1cccs1)c1ccccn1

>  <LABEL_CLASS>
Criterion met

$$$$
>  <COMPOUND>
CCCCC1=NC2(CCCC2)C(=O)N1Cc1ccc(-c2ccccc2-c2nnn[nH]2)cc1

>  <LABEL_CLASS>
Criterion met

$$$$
>  <COMPOUND>
C[C@@](Cc1ccc(O)c(O)c1)(NN)C(=O)O.O

>  <LABEL_CLASS>
Criterion met

$$$$
>  <COMPOUND>
C[C@]12CC[C@@H]3c4ccc(O)cc4CC[C@H]3[C@@H]1C[C@@H](O)[C@@H]2O

>  <LABEL_CLASS>
Criterion not met

$$$$
>  <COMPOUND>
COc1cc(OC)c(C(=O)CCCN2CCCC2)c(OC)c1

>  <LABEL_CLASS>
Criterion met

$$$$

----------
- Organism: Rattus norvegicus
- ASSAY_TEXT: DrugMatrix - Regimen: Daily Repeat
- Type: toxicity, organism-based, Sprague-Dawley
- Design: regimen Daily Repeat, gender Male, age 6-8 weeks
- CONDITION_NOTES: in vivo, po, 0 mg/kg, 72 h, tissue Plasma, route oral GAVAGE, dose level Control, time 3 day, vehicle .5 % CMC

>  <COMPOUND>
C[C@H]1[C@H](NC(=O)/C(=N\OC(C)(C)C(=O)O)c2csc(N)n2)C(=O)N1S(=O)(=O)O [AZTREONAM]

>  <CHLORIDE, MEQ/L>
99.17

$$$$
>  <COMPOUND>
CN1CCN(C2=Nc3cc(Cl)ccc3Nc3ccccc32)CC1 [CLOZAPINE]

>  <CHLORIDE, MEQ/L>
105.17

$$$$
>  <COMPOUND>
CCOc1nc2cccc(C(=O)O)c2n1Cc1ccc(-c2ccccc2-c2nnn[nH]2)cc1

>  <CHLORIDE, MEQ/L>
102.5

$$$$
>  <COMPOUND>
CCCCC1=NC2(CCCC2)C(=O)N1Cc1ccc(-c2ccccc2-c2nnn[nH]2)cc1 [IRBESARTAN]

>  <CHLORIDE, MEQ/L>
102.83

$$$$

----------
- Organism: Rattus norvegicus
- ASSAY_TEXT: DrugMatrix - Regimen: Daily Repeat
- Format: toxicity, organism-based, Sprague-Dawley
- Set-up: regimen Daily Repeat, gender Male, age 6-8 weeks
- CONDITION_NOTES: in vivo, po, 0 mg/kg, 72 h, tissue Plasma, route oral GAVAGE, dose level Control, time 3 day, vehicle .5 % CMC
The following ranges of LACTATE DEHYDROGENASE define the classes used here: lo: < 200 u/L; med: ≥ 200 u/L and < 400 u/L; hi: ≥ 400 u/L

>  <MOLECULE>
CN(C)C(=O)C(CCN1CCC(O)(c2ccc(Cl)cc2)CC1)(c1ccccc1)c1ccccc1 [LOPERAMIDE]

>  <LABEL_CLASS>
med

$$$$
>  <MOLECULE>
C[C@]12CC[C@@H]3c4ccc(O)cc4CC[C@H]3[C@@H]1C[C@@H](O)[C@@H]2O [ESTRIOL]

>  <LABEL_CLASS>
hi

$$$$
>  <MOLECULE>
C[C@@](Cc1ccc(O)c(O)c1)(NN)C(=O)O.O [CARBIDOPA]

>  <LABEL_CLASS>
med

$$$$
>  <MOLECULE>
CCCCC1=NC2(CCCC2)C(=O)N1Cc1ccc(-c2ccccc2-c2nnn[nH]2)cc1 [IRBESARTAN]

>  <LABEL_CLASS>
med

$$$$
>  <MOLECULE>
CCOc1nc2cccc(C(=O)O)c2n1Cc1ccc(-c2ccccc2-c2nnn[nH]2)cc1

>  <LABEL_CLASS>
med

$$$$
>  <MOLECULE>
COc1ccccc1[N+](=O)[O-] [2-NITROANISOLE]

>  <LABEL_CLASS>
hi

$$$$
>  <MOLECULE>
COc1cc(OC)c(C(=O)CCCN2CCCC2)c(OC)c1 [BUFLOMEDIL]

>  <LABEL_CLASS>
lo

$$$$
>  <MOLECULE>
C[C@@H]1O[C@@H](O[C@H]2C[C@@H](O)[C@]3(CO)[C@H]4[C@H](O)C[C@]5(C)[C@@H](C6=CC(=O)OC6)CC[C@]5(O)[C@@H]4CC[C@]3(O)C2)[C@H](O)[C@H](O)[C@H]1O [OUABAIN]

>  <LABEL_CLASS>
med

$$$$
>  <MOLECULE>
NC(=O)N1c2ccccc2CC(=O)c2ccccc21 [OXCARBAZEPINE]

>  <LABEL_CLASS>
lo

$$$$
>  <MOLECULE>
CCC1=C(C)CN(C(=O)NCCc2ccc(S(=O)(=O)NC(=O)N[C@H]3CC[C@H](C)CC3)cc2)C1=O [GLIMEPIRIDE]

>  <LABEL_CLASS>
med

$$$$
>  <MOLECULE>
C[C@H]1[C@H](NC(=O)/C(=N\OC(C)(C)C(=O)O)c2csc(N)n2)C(=O)N1S(=O)(=O)O [AZTREONAM]

>  <LABEL_CLASS>
med

$$$$
